Values from patent US11414429B2

Measured on: tankyrase 1 (TNKS 1) (Homo sapiens)
Construct: 1,024-1,327aa; made in house; host or cells: cell-free protein synthesis system
Sequence (O95271 1024-1327): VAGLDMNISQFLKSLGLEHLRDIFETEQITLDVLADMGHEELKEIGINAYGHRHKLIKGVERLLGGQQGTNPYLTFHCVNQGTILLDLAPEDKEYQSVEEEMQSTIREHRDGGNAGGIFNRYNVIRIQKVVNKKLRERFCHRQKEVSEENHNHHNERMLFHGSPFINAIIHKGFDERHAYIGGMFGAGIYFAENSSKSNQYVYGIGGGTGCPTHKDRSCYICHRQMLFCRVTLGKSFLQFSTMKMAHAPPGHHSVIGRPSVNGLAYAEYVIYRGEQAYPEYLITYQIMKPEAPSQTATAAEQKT
Experiment: Tankyrase inhibitory activity test (ELISA, self-polyADP ribosylation), tankyrase 1
Type: biochemical
Applied conditions: tankyrase 1, ELISA, self-polyADP ribosylation; read-out: TNKS1 inhibitory activity (IC50 class)
Readout: IC50

In [3]: df
Out[3]:
                                   molecule  readout    data_value
0  CCOC(=O)c1coc(-c2cc(Cl)c3c(c2)N(C)C(=O)C32CCN(c3nc4c(c(=O)[nH]3)CCCN4C)CC2)n1 [Example 328]     IC50  20 to 200 nM
1  O=c1[nH]c(N2CCC3(CC2)CN(Cc2ccccc2F)c2cc(F)cc(F)c23)nc2c1CCCC2 [Example 341]     IC50  20 to 200 nM
2  COc1cccc(CN2CC3(CCN(c4nc5c(c(=O)[nH]4)CCCC5)CC3)c3ccccc32)c1 [Example 99]     IC50  20 to 200 nM
3  COc1ccc2c(c1)C1(CCN(c3nc4c(c(=O)[nH]3)CCCC4)CC1)CN2C [Example 147]     IC50  20 to 200 nM
4  CN1CCCc2c1nc(N1CCC3(CC1)C(=O)Nc1cccc(F)c13)[nH]c2=O [Example 185]     IC50       < 20 nM
5  COCCOc1cc(F)c2c(c1)N(C)C(=O)C21CCN(c2nc3c(c(=O)[nH]2)CCCN3C)CC1 [Example 366]     IC50       < 20 nM
6  CN1CCCc2c1nc(N1CCC3(CC1)C(=O)N(C)c1cc(OCCCN4CCCC4)cc(F)c13)[nH]c2=O [Example 367]     IC50       < 20 nM

---

Measured on: tankyrase 2 (TNKS 2) (Homo sapiens)
Construct: 613-1, 116aa; made in house; host or cells: cell-free protein synthesis system
Sequence (Q9H2K2 613-1166): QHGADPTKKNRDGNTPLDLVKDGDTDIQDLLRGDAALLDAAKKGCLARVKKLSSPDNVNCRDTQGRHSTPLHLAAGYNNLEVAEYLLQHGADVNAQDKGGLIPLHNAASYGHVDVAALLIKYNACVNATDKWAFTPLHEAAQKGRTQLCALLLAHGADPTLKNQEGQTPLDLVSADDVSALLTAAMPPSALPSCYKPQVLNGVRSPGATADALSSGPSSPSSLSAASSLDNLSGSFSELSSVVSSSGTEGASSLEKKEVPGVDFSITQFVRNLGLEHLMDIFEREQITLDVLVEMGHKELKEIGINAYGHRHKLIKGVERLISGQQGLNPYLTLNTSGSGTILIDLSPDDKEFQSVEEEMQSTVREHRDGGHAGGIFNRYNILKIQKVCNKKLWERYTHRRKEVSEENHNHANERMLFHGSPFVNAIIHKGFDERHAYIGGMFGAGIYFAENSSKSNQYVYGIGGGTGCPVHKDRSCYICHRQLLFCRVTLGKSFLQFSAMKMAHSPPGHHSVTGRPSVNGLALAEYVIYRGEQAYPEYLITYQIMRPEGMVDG
Experiment: Tankyrase inhibitory activity test (ELISA, self-polyADP ribosylation), tankyrase 2
Format: biochemical
Applied conditions: tankyrase 2, ELISA, self-polyADP ribosylation; read-out: TNKS2 inhibitory activity (IC50 class)
pIC50: −log10 of the molar value.
Readout: pIC50

>>> df
                                  structure    data_value
0  CN1CCN(c2cc(F)c3c(c2)N(C)C(=O)C32CCN(c3nc4c(c(=O)[nH]3)CCCN4C)CC2)CC1        > 7.70
1  CN1CCCc2c1nc(N1CCC3(CC1)C(=O)N(C)c1ccccc13)[nH]c2=O        > 7.70
2  CN1CCCc2c1nc(N1CCC3(CC1)C(=O)N(CCO)c1cc(O)cc(F)c13)[nH]c2=O        > 7.70
3  CN1CCCc2c1nc(N1CCC3(CC1)C(=O)N(C)c1cc(-c4nc(C(=O)N5CCOCC5)co4)cc(Cl)c13)[nH]c2=O  6.70 to 7.70
4  CCOC(=O)c1cc(Cl)c2c(c1)N(Cc1cccnc1)CC21CCN(c2nc3c(c(=O)[nH]2)CCCC3)CC1  6.70 to 7.70
5  CN1CCCc2c1nc(N1CCC3(CC1)C(=O)N(C)c1cc(OCCN4CCS(=O)(=O)CC4)cc(F)c13)[nH]c2=O        > 7.70
6  CN1CCCc2c1nc(N1CCC3(CC1)C(=O)N(CCO)c1cc(OCCN4CCOCC4)cc(F)c13)[nH]c2=O        > 7.70
